assay: MM1S cell viability effects, profiling panel, calcein-AM fluorescence, 48 h, basal (AID 1165); settings: higher = more signal;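 note: viability of MM1S multiple myeloma cells under basal unstimulated conditions; test concentration not given here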
Param threshold (-0.4) applies to z-score; output met when value >= threshold, not met when value < threshold.

q: Say whether CCCNC(=O)[C@@]1(Sc2ccc(C)cc2)CC(=O)N(Cc2cc(C(F)(F)F)cc(C(F)(F)F)c2)[C@@H]1c1ccc(CO)cc1I shows z-score of -0.4 or more.
a: not met

q: Quick check: does CCN(CC)c1ccc(N2CC=CC34O[C@@H]5C=CCOC(=O)[C@@H]5[C@H]3C(=O)N(C(CO)C(C)C)[C@@H]4C2=O)cc1 (some centres not stated) have z-score greater than or equal to -0.4?
a: not met

q: API: above_or_equal(metric=z-score, cutoff=-0.4) for item CCOC(=O)C[C@H]1[C@H](OC(=O)c2ccc(-c3ccccc3)cc2)[C@@H](NC(=O)c2ccccc2)c2cc(OCCCO)ccc2N1C(=O)c1ccccc1
a: met

q: Determine whether this compound has z-score no lower than -0.4: C=C(COC)C(=O)CC[C@H](OC(=O)c1cccnc1)c1cccc(OCCO)c1
a: not met

q: Determine whether this compound has z-score no lower than -0.4: C[N+](C)(C)CCCC[C@@H]1NC(=O)[C@H]2C[C@@H](C(=O)NCCCCCN)[C@@H](c3cccc(OCCO)c3)N2C1=O
a: not met

q: I'd appreciate it if you could say whether Cc1ccc(N2C(=O)c3ccccc3[C@](C)(C(=O)NCC(F)(F)F)[C@@H]2c2ccc(CO)cc2)nc1 has z-score at least equal to -0.4.
a: not met

q: For this compound, is measured z-score -0.4 or higher? C=CCC(OC(C)=O)[C@@H]1[C@@H](N(Cc2ccc(-c3ccccc3)cc2)C(=O)c2ccc(-c3ccccc3)cc2)c2cc(OCCCO)ccc2N1C(=O)c1ccc(-c2ccccc2)cc1 (some centres not stated)
a: met
